Source: patent US10577362B2

Tested on: Huh7 (hepatocellular carcinoma) cell line
Experiment: CellTiter-Glo luminescent cell viability assay, Huh7
Type: cell-based, human
Details: Homo sapiens, Huh-7; Huh7, compound at 4 μM, 72 h
Each record is given fulfilled if its reported viability at 4 µM is strictly below 90%. Records at or above 90% are given not fulfilled.

                                   compound  categorylabel
0  CNC1CCCN(c2c(C#N)c(NCc3ccc(Cl)cc3)nc3ccccc23)C1 (stereo not drawn) [Compound 3158CN]      fulfilled
1  N#Cc1c(NCc2ccc(Cl)cc2)nc2ccccc2c1N1CCCC(NC2CCCC2)C1 (stereo not drawn) [Compound 162CN]      fulfilled
2  N#Cc1c(NCc2ccc(Cl)cc2)nc2ccccc2c1N1CCCC(N2CCOCC2)C1 (stereo not drawn) [Compound 178CN]  not fulfilled
3  Cc1nc(Nc2nc3ccccc3c(N3CCC(NC(C)(C)C)CC3)c2C#N)n(C)n1 [Compound 3274CN]  not fulfilled
4  N#Cc1c(NCc2ccc(Cl)cc2)nc2ccccc2c1N1CCC(Oc2ccc(F)cc2)CC1 [Compound 2942CN]  not fulfilled
5  Cn1cc(Nc2nc3ccccc3c(N3CCC(NC(C)(C)C)CC3)c2C#N)cn1 [Compound 3268CN]  not fulfilled
6  CC(C)(C)NC1CCN(c2c(C#N)c(NCc3cccnc3)nc3ccccc23)CC1 [Compound 3304CN]  not fulfilled
7  CC(C)(C)NC1CCN(c2c(C#N)c(Nc3cccc(F)c3)nc3ccccc23)CC1 [Compound 3262CN]      fulfilled

----------
System: Huh7 (hepatocellular carcinoma) cell line
Assay: CellTiter-Glo luminescent cell viability assay, Huh7
Assay type: cell-based, human
Details: Homo sapiens, Huh-7; Huh7, compound at 10 μM, 72 h
Response field class: enum, chosen by comparing viability at 10 µM against range 1 (below 0.4%), range 2 (0.4% to below 30%), range 3 (30% or more)

                                    compound  categorylabel
 0  Cn1ncnc1Nc1nc2ccccc2c(N2CCC(NC(C)(C)C)CC2)c1C#N [Compound 3270CN]        range 3
 1  COc1ccc(Nc2nc3ccccc3c(N3CCC(NC(C)(C)C)CC3)c2C#N)cc1 [Compound 3252CN]        range 2
 2  N#Cc1c(NCc2ccc(Cl)cc2)nc2ccccc2c1N1CCC(Oc2ccc(F)cc2)C1 (stereo not shown) [Compound 3338CN]        range 3
 3  CNC1CCCN(c2c(C#N)c(NCc3ccc(Cl)cc3)nc3ccccc23)C1 (stereo not shown) [Compound 3158CN]        range 2
 4  Cc1cc(CNc2nc3ccccc3c(N3CCC(NC(C)(C)C)CC3)c2C#N)ccc1Nc1nccc(-c2cccnc2)n1 [Compound 498CN]        range 1
 5  CN(C)C1CCCN(c2c(C#N)c(NCc3ccc(Cl)cc3)nc3ccccc23)C1 (stereo not shown) [Compound 3164CN]        range 3
 6  CC(C)(C)NC1CCN(c2c(F)c(NCc3ccc(F)cc3)nc3ccccc23)CC1 [Compound 240F]        range 2
 7  CC(C)NC1CCN(c2c(C#N)c(NCc3ccc(Cl)cc3)nc3ccccc23)CC1 [Compound 3174CN]        range 1
 8  Cc1ccc2nc(NCc3ccc(Cl)cc3)c(C#N)c(N3CCC(NC(C)(C)C)CC3)c2c1 [Compound 418CN]        range 1
 9  N#Cc1c(NCc2ccc(Cl)cc2)nc2ccccc2c1N1CCC(Oc2ccc(Cl)cc2)C1 (stereo not shown) [Compound 3336CN]        range 3
10  N#Cc1c(NCc2ccc(Cl)cc2)nc2ccccc2c1N1CCC(NC2CCOCC2)C1 (stereo not shown) [Compound 136CN]        range 3
11  N#Cc1c(NCc2ccc(Cl)cc2)nc2ccccc2c1N1CCCC(NC2CCCC2)C1 (stereo not shown) [Compound 162CN]        range 1

----------
Test system: 786-O (renal adenocarcinoma) cell line
Assay: CellTiter-Glo luminescent cell viability assay, 786-O
Assay type: cell-based, human
Settings: Homo sapiens, 786-0; 786-O cell line; 72 h incubation; CellTiter-Glo; read-out: EC50, growth inhibition of 786-O
Procedure: All cell lines were maintained in medium containing 1% penicillin-streptomycin (Dutscher, P06-07100) and 10% Fetal Bovine Serum (Hyclone Dutscher, RZK35922) cultured at 37° C. with 5% CO2. […] Cell viability was measured using the CellTiter-Glo® luminescent cell viability assay as described by the manufacturer (Promega, Ref G7571) using an Infinite F200Pro luminometer (Tecan). […]
Where a name gives a salt, the structure may show the parent alone.
reportedMetric: EC50

>>> df
                                    compound  reportedmetric   observedvalue
 0  N#Cc1c(NCc2ccc(Cl)cc2)nc2ccccc2c1N1CCC(N2CCCC2)CC1 [Compound 200CN]            EC50     0.5 to 5 µM
 1  OC[C@H]1CCCN1c1cc(NCc2ccc(Cl)cc2)nc2ccccc12 [Compound 2380, hydrochloride]            EC50      5 to 10 µM
 2  CC(C)(C)NC1CCN(c2c(C#N)c(Nc3cccc(F)c3)nc3ccccc23)CC1 [Compound 3262CN]            EC50     0.5 to 5 µM
 3  CC(C)NC1CCCN(c2c(C#N)c(NCc3ccc(Cl)cc3)nc3ccccc23)C1 (stereo not shown) [Compound 3160CN]            EC50      5 to 10 µM
 4  Cc1cc(C)nc(Nc2ccc(Nc3nc4ccccc4c(N4CCC(NC(C)(C)C)CC4)c3C#N)cc2C)n1 [Compound 502CN]            EC50     0.5 to 5 µM
 5  CNC1CCCN(c2c(C#N)c(NCc3ccc(Cl)cc3)nc3ccccc23)C1 (stereo not shown) [Compound 3158CN]            EC50      5 to 10 µM
 6  COC[C@@H]1CCCN1c1cc(NCc2ccc(Cl)cc2)nc2ccccc12 [Compound 2310, hydrochloride]            EC50      5 to 10 µM
 7  COC(=O)c1c(NCc2ccc(Cl)cc2)nc2ccccc2c1N1CCC(NC(C)(C)C)CC1            EC50     0.5 to 5 µM
 8  CN1CCC(NC2CCN(c3c(C#N)c(NCc4ccc(Cl)cc4)nc4ccccc34)CC2)CC1 [Compound 3182CN]            EC50  0.05 to 0.5 µM
 9  CC(C)(C)NC1CCN(c2c(C#N)c(Nc3ccccc3C(F)(F)F)nc3ccccc23)CC1 [Compound 3254CN]            EC50     0.5 to 5 µM
10  CC(C)(C)NC1CCN(c2c(C#N)c(NCc3ccccc3)nc3ccccc23)CC1 [Compound 3286CN]            EC50      5 to 10 µM
11  CCN(CC)C1CCN(c2c(C#N)c(NCc3ccc(Cl)cc3)nc3ccccc23)CC1 [Compound 184CN]            EC50      5 to 10 µM
12  CC(C)OC1CCN(c2cc(NCc3ccc(Cl)cc3)nc3ccccc23)CC1 [Compound 2918, hydrochloride]            EC50      5 to 10 µM
13  Cc1c(NCc2ccc(Cl)cc2)nc2ccccc2c1N1CCC(NC(C)(C)C)CC1            EC50     0.5 to 5 µM
14  Cc1ccc2c(N3CCC(NC(C)(C)C)CC3)c(C#N)c(NCc3ccc(Cl)cc3)nc2c1 [Compound 416CN]            EC50     0.5 to 5 µM
15  N#Cc1c(NCc2ccc(Cl)cc2)nc2ccccc2c1N1CCC(N)C1 (stereo not shown) [Compound 3190CN]            EC50      5 to 10 µM
16  CC(C)NC1CCN(c2c(C#N)c(NCc3ccc(Cl)cc3)nc3ccccc23)CC1 [Compound 3174CN]            EC50     0.5 to 5 µM
17  CC(C)(C)NC1CCN(c2c(C#N)c(NCc3ccc(F)cc3)nc3ccccc23)CC1 [Compound 240CN]            EC50      5 to 10 µM
18  O[C@@H]1CCN(c2cc(NCc3ccc(Cl)cc3)nc3ccccc23)C1 [Compound 2988, hydrochloride]            EC50     0.5 to 5 µM
19  CN1CCN(C2CCN(c3c(C#N)c(NCc4ccc(Cl)cc4)nc4ccccc34)C2)CC1 (stereo not shown) [Compound 3200CN]            EC50      5 to 10 µM
20  CNC1CCN(c2c(C#N)c(NCc3ccc(Cl)cc3)nc3ccccc23)C1 (stereo not shown) [Compound 3192CN]            EC50     0.5 to 5 µM
21  N#Cc1c(NCc2ccc(Cl)cc2)nc2ccccc2c1N1CCCC(NC2CCCC2)C1 (stereo not shown) [Compound 162CN]            EC50     0.5 to 5 µM
22  CC(C)(C)NC1CCN(c2c(C#N)c(Nc3ccc(Cl)cc3)nc3ccccc23)CC1 [Compound 3258CN]            EC50     0.5 to 5 µM
23  Cc1ccnc(Nc2ccc(Nc3nc4ccccc4c(N4CCC(NC(C)(C)C)CC4)c3C#N)cc2)n1 [Compound 532CN]            EC50     0.5 to 5 µM
24  CC(C)(C)NC1CCN(c2c(F)c(NCc3ccc(Cl)cc3)nc3ccccc23)CC1 [Compound 348, Hydrochloride Salt]            EC50     0.5 to 5 µM
25  CNC1CCN(c2c(C#N)c(NCc3ccc(Cl)cc3)nc3ccccc23)CC1 [Compound 3172CN]            EC50     0.5 to 5 µM
26  Clc1ccc(CNc2cc(N3CC[C@H](Oc4ccccn4)C3)c3ccccc3n2)cc1 [Compound 3098, hydrochloride]            EC50     0.5 to 5 µM
27  N#Cc1c(NCc2ccc(Cl)cc2)nc2ccccc2c1N1CCCC(N)C1 (stereo not shown) [Compound 3156CN]            EC50     0.5 to 5 µM
28  CC(C)(C)NC1CCN(c2c(C#N)c(Nc3cccc(Nc4nccc(C(F)(F)F)n4)c3)nc3ccccc23)CC1 [Compound 540CN]            EC50     0.5 to 5 µM
29  Cc1cc(F)cc2c(N3CCC(NC(C)(C)C)CC3)cc(NCc3ccc(Cl)cc3)nc12            EC50     0.5 to 5 µM
30  Cc1cc(Nc2nc3ccccc3c(N3CCC(NC(C)(C)C)CC3)c2C#N)ccc1F [Compound 3250CN]            EC50     0.5 to 5 µM
